Overview of recorded inhibition for various compounds
Biological target: MAP/microtubule affinity-regulating kinase 3 (Homo sapiens);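 further: reported values are averaged percent inhibition of MARK3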
Conditions: at 1 µM

Previously resolved entries follow.
smiles_data	result
C[C@@H](Oc1cc(-n2cnc3ccc(OC4CCN(C)CC4)cc32)sc1C(N)=O)c1ccccc1Cl	8.01%
Cc1ccc(C(=O)NC2CCC2)cc1-c1ccc(C(=O)NCC2CC2)cc1	0.6%
C[C@@H](Oc1cc(-n2cnc3ccc(OCC4CCN(C)CC4)cc32)sc1C(N)=O)c1ccccc1Cl	31.2%
C/C(Nc1ccc(S(N)(=O)=O)cc1)=C1/C(=O)Nc2ccccc21	19.8%
COc1cc2ncn(-c3cc(OCc4ccccc4C(F)(F)F)c(C(C)=O)s3)c2cc1OC	3.71%

Entry "c1ccc(-c2n[nH]cc2-c2ccnc(-c3ccc(OCCN4CCOCC4)cc3)c2)nc1" , tested on MAP/microtubule affinity-regulating kinase 3 (Homo sapiens), has a reported inhibition of 5.45%

Entry "CS(=O)(=O)CCNCc1cc(-c2cc3c(Nc4ccc(OCc5cccc(F)c5)c(Cl)c4)ncnc3s2)cs1" , tested on MAP/microtubule affinity-regulating kinase 3 (Homo sapiens), has a reported inhibition of 3.64%

Entry "CCN(CC)Cc1ccc(Nc2nccc(-c3cnn4ncccc34)n2)cc1" , tested on MAP/microtubule affinity-regulating kinase 3 (Homo sapiens), has a reported inhibition of 24.7%

Entry "COc1cc2ncn(-c3cc(OCCc4ccccc4)c(C(N)=O)s3)c2cc1OC" , tested on MAP/microtubule affinity-regulating kinase 3 (Homo sapiens), has a reported inhibition of 1.74%

Entry "Fc1ccc(-c2ncn(CCCN3CCOCC3)c2-c2ccncc2)cc1" , tested on MAP/microtubule affinity-regulating kinase 3 (Homo sapiens), has a reported inhibition of 22%

Entry "FC(F)(F)c1cccc(Nc2nccc(-c3cnn4nc(-c5ccccc5)ccc34)n2)c1" , tested on MAP/microtubule affinity-regulating kinase 3 (Homo sapiens), has a reported inhibition of 1.86%

Entry "NCc1ccc(-n2c(-c3nonc3N)nc3cnccc32)cc1" , tested on MAP/microtubule affinity-regulating kinase 3 (Homo sapiens), has a reported inhibition of 22.6%

Entry "Cc1ccc(C(=O)NC(C)C)cc1-c1ccc(C(=O)NCC2CC2)cc1" , tested on MAP/microtubule affinity-regulating kinase 3 (Homo sapiens), has a reported inhibition of -0.42%

Entry "CN(c1ccc(NC(=O)Nc2c(Cl)cccc2Cl)cc1)c1ccnc(Nc2cccc(CS(C)(=O)=O)c2)n1" , tested on MAP/microtubule affinity-regulating kinase 3 (Homo sapiens), has a reported inhibition of 13.3%

Entry "COc1ccc(-c2ccc3c(NC(=O)C4CC4)n[nH]c3n2)cc1" , tested on MAP/microtubule affinity-regulating kinase 3 (Homo sapiens), has a reported inhibition of 2.41%

Entry "O=C(Nc1ccc(Oc2ccc3[nH]c(NC(=O)c4ccccc4)nc3c2)cc1)Nc1cc(C(F)(F)F)ccc1F" , tested on MAP/microtubule affinity-regulating kinase 3 (Homo sapiens), has a reported inhibition of 22.9%

Entry "N#Cc1ccc(Oc2nccc(-c3c(-c4ccc(F)cc4)ncn3C3CCNCC3)n2)cc1" , tested on MAP/microtubule affinity-regulating kinase 3 (Homo sapiens), has a reported inhibition of 0.33%

Entry "Clc1ccc(CNc2nccc(-c3cnn4ncccc34)n2)cc1" , tested on MAP/microtubule affinity-regulating kinase 3 (Homo sapiens), has a reported inhibition of 2.59%

Entry "COc1ccc(C2=C(N3CCc4ccccc43)C(=O)NC2=O)cc1" , tested on MAP/microtubule affinity-regulating kinase 3 (Homo sapiens), has a reported inhibition of 4.14%

Entry "O=C(Nc1n[nH]c2cc(-c3ccccc3)ccc12)C1CC1" , tested on MAP/microtubule affinity-regulating kinase 3 (Homo sapiens), has a reported inhibition of 9.09%

Taken from ChEMBL document CHEMBL1961873.
